TGT: human CXCR4 (Homo sapiens, UniProt P61073)
Sequence (P61073 whole entry): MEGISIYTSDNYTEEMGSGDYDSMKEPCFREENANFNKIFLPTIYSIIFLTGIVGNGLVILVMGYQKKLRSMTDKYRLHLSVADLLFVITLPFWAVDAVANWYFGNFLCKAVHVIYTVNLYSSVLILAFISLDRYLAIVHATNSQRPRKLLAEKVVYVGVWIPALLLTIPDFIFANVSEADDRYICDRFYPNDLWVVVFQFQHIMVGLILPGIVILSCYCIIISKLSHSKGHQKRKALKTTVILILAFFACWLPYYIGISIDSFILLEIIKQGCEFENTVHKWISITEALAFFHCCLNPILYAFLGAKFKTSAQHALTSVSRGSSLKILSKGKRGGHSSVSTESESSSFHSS
METHOD DESCRIPTION: cell-based
Numbered stars: 1 amine (or outer) side, 2 acyl side, 3 side chain; on linkers, the order of the positions; unused ones are H or OH. Square brackets hold non-standard residues; d marks the D form. Peptide text beside a SMILES is read from it. * marks the point of attachment. X2 = O=C([C@H](CCCNCc1cccc2ccccc12)N[*:1])[*:2]; X4 = O=C([C@H](CCCNCc1ccc2ccccc2c1)N[*:1])[*:2]; 2Nal = N[C@@H](Cc1ccc2ccccc2c1)C(=O)O; Benzoyl(4-F) = O=C(c1ccc(F)cc1)*; dOrn = NCCC[C@@H](N)C(=O)O
MEASURED QUANTITY: IC50 (nM)
Number in nM, nothing else.

[
  {
    "COMPOUND": "N=C(N)NCCC[C@@H]1NC(=O)[C@H](CCCNCc2ccc3ccccc3c2)NC(=O)[C@@H](Cc2ccc(O)cc2)NC(=O)CNC(=O)[C@H](Cc2ccc3ccccc3c2)NC1=O [cyc[D-Tyr-Orn(N2)-Arg-Nal-Gly]] (cyclo([dY][X4]R[2Nal]G))",
    "UNIT NAME": "nM",
    "IC50": 49
  },
  {
    "COMPOUND": "N=C(N)NCCC[C@@H]1NC(=O)[C@H](CCCNCc2cccc3ccccc23)NC(=O)[C@@H](Cc2ccc(O)cc2)NC(=O)CNC(=O)[C@H](Cc2ccc3ccccc3c2)NC1=O [cyc[D-Tyr-Orn(N1)-Arg-Nal-Gly]] (cyclo([dY][X2]R[2Nal]G))",
    "UNIT NAME": "nM",
    "IC50": 40
  }
]

Data request: May I ask what IC50 has been recorded for N=C(N)NCCC[C@@H]1NC(=O)[C@@H](CCCNC(=O)c2ccc(F)cc2)NC(=O)[C@@H](Cc2ccc(O)cc2)NC(=O)CNC(=O)[C@H](Cc2ccc3ccccc3c2)NC1=O [cyc[D-Tyr-D-Orn(FB)-Arg-Nal-Gly]] (cyclo([2Nal]G[dY][dOrn](Benzoyl(4-F))R)) ?
Data returned: 86

* * *

TGT: human CXCR4 (Homo sapiens, UniProt P61073)
METHOD DESCRIPTION: cell-based
Square brackets hold non-standard residues; d marks the D form. Peptide text beside a SMILES is read from it. * marks the point of attachment. 2Nal = N[C@@H](Cc1ccc2ccccc2c1)C(=O)O; Benzoyl(4-F) = O=C(c1ccc(F)cc1)*; Orn = NCCC[C@H](N)C(=O)O
MEASURED QUANTITY: pIC50
As a rule, pIC50 stands for the negative log10 of the concentration, concentration in M.

Data request: Lab note: need pIC50 for N=C(N)NCCC[C@@H]1NC(=O)[C@H](CCCNC(=O)c2ccc(F)cc2)NC(=O)[C@@H](Cc2ccc(O)cc2)NC(=O)CNC(=O)[C@H](Cc2ccc3ccccc3c2)NC1=O [cyc[D-Tyr-Orn(FB)-Arg-Nal-Gly]] (cyclo([dY][Orn](Benzoyl(4-F))R[2Nal]G)) on human CXCR4 (Homo sapiens, UniProt P61073), anyone have it?
Data returned: 7.96

* * *

List of pIC50 values.
TGT: human CXCR4 (Homo sapiens, UniProt P61073)
METHOD DESCRIPTION: cell-based
Numbered stars: 1 amine (or outer) side, 2 acyl side, 3 side chain; on linkers, the order of the positions; unused ones are H or OH. Square brackets hold non-standard residues; d marks the D form. Peptide text beside a SMILES is read from it. X3 = O=C(c1ccc(F)cc1)N(CCC[C@H](N[*:1])C(=O)[*:2])Cc1ccccc1; X1 = CN(CCC[C@H](C(=O)[*:2])N(C)[*:1])C(=O)c1ccc(F)cc1; 2Nal = N[C@@H](Cc1ccc2ccccc2c1)C(=O)O
As a rule, pIC50 stands for the negative log10 of the concentration, concentration in M.

[
  {
    "COMPOUND": "N=C(N)NCCC[C@@H]1NC(=O)[C@H](CCCN(Cc2ccccc2)C(=O)c2ccc(F)cc2)NC(=O)[C@@H](Cc2ccc(O)cc2)NC(=O)CNC(=O)[C@H](Cc2ccc3ccccc3c2)NC1=O [cyc[D-Tyr-Orn(Bz,FB)-Arg-Nal-Gly]] (cyclo([2Nal]G[dY][X3]R))",
    "pIC50": 7.00
  }
]

We next turn to a different compound, shown below.
Data request: May I ask what pIC50 has been recorded for CN(CCC[C@@H]1C(=O)N[C@@H](CCCNC(=N)N)C(=O)N[C@@H](Cc2ccc3ccccc3c2)C(=O)NCC(=O)N[C@H](Cc2ccc(O)cc2)C(=O)N1C)C(=O)c1ccc(F)cc1 [cyc[D-Tyr-(Me)D-Orn(Me,FB)-Arg-Nal-Gly]] (cyclo([2Nal]G[dY][X1]R)) ?
Data returned: 7.23
